Reported IC50 for target or system PIK3CA (human), by entry.
READOUT LABEL: IC50 (nM)

Below: 3 molecules and their reported IC50.
CC[C@]1(C)OCCn2c1nc1c(N3CCOCC3)nc(-c3cnc(N)nc3)nc12 : 3.11
CC(C)NC(=O)Nc1ccc(-c2nc(N3CCOCC3)c3nc4n(c3n2)CCOC4(C)C)cc1 : 337
Nc1ccc(-c2nc(N3CCOCC3)c3nc4n(c3n2)CCOC4C(F)(F)F)cn1 (stereo not drawn) : 45.2

P. Nc1ncc(-c2nc(N3CCOCC3)c3nc4n(c3n2)CCOC42COC2)cn1
Q. Nc1ncc(-c2nc(N3CCOCC3)c3nc4n(c3n2)CCCO4)cn1
R. CC(=O)Nc1ccc(-c2nc(N3CCOCC3)c3nc4n(c3n2)CCOC4(C)C)cn1
Order the items by recorded IC50; the first position goes to the largest value. Give your ranking as a list of the labels in the requested order.
R, Q, P

1. Nc1ncc(-c2nc(N3CCOCC3)c3nc4n(c3n2)CCO[C@@H]4C(F)(F)F)cn1
2. CC1(C)OCCn2c1nc1c(N3CCOCC3)nc(-c3ccc(N)cc3)nc12
Please indicate which item has the smaller measured IC50: 1 versus 2 # answer = label of selected item
1
(1: 3.45 nM, 2: 541 nM)

1. CC1(C)OCCn2c1nc1c(N3CCOCC3)nc(-c3ccccc3NS(C)(=O)=O)nc12
2. CC1c2nc3c(N4CCOCC4)nc(-c4cnc(N)nc4)nc3n2CCN1C (stereo not drawn)
Please indicate which item has the smaller measured IC50: 1 versus 2 # answer = label of selected item
2
(2: 6.89 nM, 1: 638 nM)

a. C[C@@H]1CN(c2nc(-c3cnc(N)nc3)nc3c2nc2n3CCOC2(C)C)C[C@H](C)O1
b. CC1(C)OCCn2c1nc1c(N3CCOCC3)nc(-c3cccc(O)c3)nc12
Please indicate which item has the smaller measured IC50: a versus b # answer = label of selected item
b

---

pIC50: −log10 of the molar value.
Reported pIC50 for target or system PIK3CA (human), by entry.
READOUT LABEL: pIC50

Below: 4 compounds and their reported pIC50.
Nc1ncc(-c2nc(N3CCOCC3)c3nc4n(c3n2)CCO[C@H]4C(F)(F)F)cn1 : 8.45
CC1(C)OCCn2c1nc1c(N3CCOCC3)nc(-c3cccc4[nH]ncc34)nc12 : 7.70
CCNC(=O)Nc1ccc(-c2nc(N3CCOCC3)c3nc4n(c3n2)CCOC4(C)C)cc1 : 7.38
CC(=O)Nc1ncc(-c2nc(N3CCOCC3)c3nc4n(c3n2)CCOC4(C)C)cn1 : 6.62

I. CC1(C)OCCn2c1cc1c(N3CCOCC3)nc(-c3cnc(N)nc3)nc12
II. CN1CCn2c(nc3c(N4CCOCC4)nc(-c4cnc(N)nc4)nc32)C1=O
Please indicate which item has the smaller measured pIC50: I versus II # answer = label of selected item
II
(II: 7.67, I: 9.08)
